B1: ZNF511 (parent)
chain: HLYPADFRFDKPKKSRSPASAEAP

variants of: B1; assay: protein stability index of a GFP-peptide fusion (GPS, HEK-293T) (PSI 1-6); higher = more stable; settings: c terminus: a fixed tail appended;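 further: lentivirally expressed fusions sorted by FACS into six bins by GFP to DsRed ratio, PSI derived from sequencing read proportions per bin multiplied by bin number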
Record form. Attribute: protein stability index. Fill in for each entry.
Numbers only.

Below are worked cases with known answers.
{"columns": ["record_sequence", "protein stability index"],
 "data": [
  ["HNYPADFRFDKPKKSRSPASAEAP [L2N]", 4.38],
  ["HLYPADFRFDKIKKSRSPASAEAP [P12I]", 3.72],
  ["HLYPADFRFDKPKMSRSPASAEAP [K14M]", 3.17],
  ["HLYPADFRFDKPKKSRGPASAEAP [S17G]", 2.63],
  ["HLYPADFRFDKPCKSRSPASAEAP [K13C]", 2.8]
]}

Please state protein stability index for every variant in the list that follows.
1. HLYPADFRFDKPKESRSPASAEAP [K14E]
2. HLYWADFRFDKPKKSRSPASAEAP [P4W]
3. HLYPADFRFGKPKKSRSPASAEAP [D10G]
4. HLYPATFRFDKPKKSRSPASAEAP [D6T]

3.23
2.33
2.85
2.48

Please state protein stability index for every variant in the list that follows.
1. HLYPADFRFDKFKKSRSPASAEAP [P12F]
2. HLYPADFRFDKPKKSRSPASAEDP [A23D]

1: 3.14; 2: 3.24
